Listing: TGI of selected molecules
Test system: OVCAR-3 ovarian
experiment_description: NCI tumour cell line growth inhibition, 48 h
Field: numeric (µM). Do not append units.

| molecule | TGI (µM) |
| --- | --- |
| CC(C)=CCC[C@@H](C)C1=CC(=O)C(C)=C(O)C1=O | 15.8 |

Okay, next one:
For the molecule `COc1ccc(-c2nc(-c3ccccn3)c(-c3ccccn3)n2CC(C)C)cc1OC1CCCC1` , report TGI.
114

* * *

Tested on: MDA-MB-231 breast
experiment_description: NCI tumour cell line growth inhibition, 48 h
Listing: TGI of selected compounds

Worked examples follow.
| compound | readout_value |
| --- | --- |
| N#Cc1c(N2CCCC2)nsc1Nc1ccc(F)cc1 | > 100 µM |
| CC(=O)Nc1ccc(-c2csc(Nc3cccc(-c4csc(-c5ccccc5)n4)c3)n2)cc1 | 37.9 µM |
| COc1ccc(C2C(C#N)=C(S)N(C3OC(CO)C(O)C(O)C3O)C(C)=C2C(C)=O)cc1 (centres undefined) | > 100 µM |
| O=c1[nH]c(=O)n(COCc2ccccc2)c2ccccc12 | > 100 µM |
| CCn1c(=O)c2c3ccc(OC)cc3[nH]c2c2ccc(OC)cc21 | > 100 µM |
| CN(C)c1ccc2cc3ccc(N(C)C)cc3nc2c1 | 2.89 µM |
| CCOC(=O)Cn1c(-c2nonc2NC(=O)c2ccccc2F)nc2ccccc21 | > 100 µM |
| CN1CCN(c2ccc3nc(-c4[nH]ncc4Nc4ncnc5c4OCCCN5)[nH]c3c2)CC1 | 0.0423 µM |

For the compound O=C1CC(C(COCc2ccccc2)OCc2ccccc2)CC(=O)N1 (centres undefined) , report TGI.
> 100 µM

* * *

System: ACHN renal
experiment_description: NCI tumour cell line growth inhibition, 48 h
test_readout: GI50

Worked examples follow.
| molecule | test_readout | readout_value |
| --- | --- | --- |
| O=C1CC(c2ccsc2)c2snc(-c3ccc(Cl)cc3)c2N1 (stereo not given) | GI50 | 5.39 µM |
| COc1ccc(-c2nnc(SCC(=O)Nc3ccc(C(=O)/C=C/c4cc(OC)c(OC)c(OC)c4)cc3)n2-c2ccccc2)cc1OC | GI50 | 5.69 µM |
| Clc1ccc2nc(Cl)c3ccccc3c2c1 | GI50 | 4.04 µM |
| O=C(Cc1ccc(Nc2ccnc(C(F)(F)F)c2)cc1)Nc1cc(Cl)ccc1O | GI50 | 4.44 µM |

Okay, next one:
For the molecule `Cc1ccc(-c2cc(-c3ccc(C)cc3)nc(N3CCN(CCNc4ccnc5cc(Cl)ccc45)CC3)n2)cc1` , report GI50.
6.18 µM

* * *

System: OVCAR-4 ovarian
experiment_description: NCI tumour cell line growth inhibition, 48 h
Listing: TGI of selected compounds

Worked examples follow.
| compound | TGI |
| --- | --- |
| CO[C@]12CC(=O)C3(C(C[C@H]4CC5CC[C@H]6C[C@@H](OC(C)=O)CC[C@]6(OC(C)=O)C5C[C@@]43C)C1)C1C[C@H]3[C@@H]4CC[C@H]5C[C@@H](OC(C)=O)CC[C@]5(OC(C)=O)[C@H]4CC[C@]3(C)C12 (some centres undefined) | > 100 µM |
| O=C1C=C(O)c2c(O)ccc(O)c2C1=O | > 100 µM |

For the compound `O=C(Cn1c(C(=O)c2ccc(Cl)cc2)nc(-c2ccccc2)c1-c1ccccc1)c1ccc(Cl)cc1` , report TGI.
> 100 µM

For the compound `O=C1c2cccnc2-c2nccc3c2c1nc1ccc(Br)cc13` , report TGI.
0.324 µM

* * *

Listing: TGI of selected compounds
Test system: SK-MEL-2 melanoma
experiment_description: NCI tumour cell line growth inhibition, 48 h

Worked examples follow.
| compound | test_system | TGI |
| --- | --- | --- |
| CN1C(=O)CCC1c1ccc2c(c1)oc(=O)n2C (stereo not drawn) | SK-MEL-2 melanoma | > 100 µM |
| CNc1ccc([N+](=O)[O-])c2c(NCCCN(C)C)ccnc12 | SK-MEL-2 melanoma | > 100 µM |

Okay, next one:
For the compound CN(C(=O)C12C3C4C1C1C2C3C41C(O)C(C)(C)C)C(C)(C)C (stereo not drawn) , report TGI.
> 100 µM

* * *

Tested on: HL-60(TB) leukemia
experiment_description: NCI tumour cell line growth inhibition, 48 h; in the data active = GI50 below about 0.43 µM; inactive = the rest
Respond with a class label; see yes for active, no for inactive

Reference set, count: 6
| compound | group_label |
| --- | --- |
| CCOC(=O)c1ccccc1SC(C[N+](=O)[O-])c1ccccc1 (centres undefined) | no |
| O=C(CCN1CCCC1)Nc1ccc2c(NCCc3ccccc3)c3ccccc3nc2c1 | yes |
| O=C1/C(=C/c2ccc(Cl)cc2)CN(C(=O)CCN2CCC(=NO)CC2)C/C1=C\c1ccc(Cl)cc1 | no |
| CC[C@H](C)[C@H](NC(=O)NC(C)(C)C)C(=O)N(C)[C@H](C[C@@H](OC(C)=O)c1nc(C(=O)N[C@@H](Cc2ccccc2)C[C@H](C)C(=O)OC)cs1)C(C)C | yes |
| CC(C)C[CH2][Ge]([CH2]CC(C)C)([CH2]CC(C)C)[CH2]CC(C)C | no |
| CCCCCCCCCCCC1=NC(C)(C)CN1CC(C)O (centres undefined) | no |

Hello, I am checking results. What call was entered for `Nc1nc(-c2ccc(Cl)cc2)cc(-c2ccc(Cl)cc2)c1-c1nc2ccccc2o1` ?
no

Hello, I am checking results. What call was entered for `COc1ccc(-c2nnc(SCC(=O)Nc3ccc(C(=O)/C=C/c4cc(OC)c(OC)c(OC)c4)cc3)n2-c2ccccc2)cc1OC` ?
no

Hello, I am checking results. What call was entered for `O=C(Cn1c(C(=O)c2ccc(Cl)cc2)nc(-c2ccccc2)c1-c1ccccc1)c1ccc(Cl)cc1` ?
no

Hello, I am checking results. What call was entered for `NC(=O)c1sc(-n2cnc3ccc(C(F)(F)F)cc32)cc1OCc1ccccc1Br` ?
no

Hello, I am checking results. What call was entered for `Fc1ccc([C@@H]2CCNC[C@H]2COc2ccc3c(c2)OCO3)cc1` ?
no

Hello, I am checking results. What call was entered for `COc1cc(C(=O)O/N=C(\N)Cc2cccc3ccccc23)cc(OC)c1OC` ?
no

Hello, I am checking results. What call was entered for CC(C)=CC(=O)N[C@@H]1CC2CCC3C(CC[C@@]4(C)C3CC[C@@H]4C(C)N(C)C)[C@@]2(C)C[C@@H]1O (some centres undefined) ?
no

Hello, I am checking results. What call was entered for `Fc1cccc(Cl)c1Cn1c(-c2c(F)cccc2Cl)nc2ccccc21` ?
no

* * *

Test system: RPMI-8226 leukemia
experiment_description: NCI tumour cell line growth inhibition, 48 h
test_readout: TGI

| compound | TGI |
| --- | --- |
| COc1ccc(/C=N\NC(=O)c2ccc3nc(-c4ccc(Cl)cc4)[nH]c3c2)cc1 | 4.77 µM |

For the compound `O=S1(=O)OCCCOS(=O)(=O)C1(Br)Br` , report TGI.
> 100 µM

For the compound CN(C)CC1CCCCCC(Br)C1=O (configuration not stated) , report TGI.
3.96 µM

For the compound `O=C(c1ccco1)c1nc2cc(C(F)(F)F)ccc2[n+]([O-])c1C(F)(F)F` , report TGI.
> 100 µM

For the compound C[N+]1([O-])[C@H]2CC(OC(=O)[C@H](CO)c3ccccc3)C[C@H]1[C@H]1O[C@H]12 (some centres not stated) , report TGI.
> 100 µM

For the compound `Cc1ccc(NC(=O)/C(=N/NC(=O)C[N+](C)(C)C)c2nc3ccccc3[nH]c2=O)cc1` , report TGI.
> 100 µM

For the compound O=C1O[C@H]2C3C4CCC(C4[C@@H]2I)[C@H]13 (some centres not stated) , report TGI.
> 100 µM

For the compound `Cc1cn([C@H]2C[C@H](O)[C@@H](CO)O2)c(=O)nc1N` , report TGI.
> 100 µM

For the compound CN(C(=O)C12C3C4C1C1C2C3C41C(O)C(C)(C)C)C(C)(C)C (configuration not stated) , report TGI.
> 100 µM

For the compound NC(CCc1ncc(-c2ccccc2)s1)C(=O)O (configuration not stated) , report TGI.
> 100 µM

For the compound `CC1=NN(C(=O)Cc2ccccc2)C(=O)/C1=C\c1ccccc1O` , report TGI.
> 100 µM

For the compound `N#Cc1ccc2[nH]c3c(c2c1)CC(=O)Nc1ccccc1-3` , report TGI.
> 100 µM

For the compound `Cc1ccc(-c2cc(-c3ccc(C)cc3)nc(N3CCN(CCNc4ccnc5cc(Cl)ccc45)CC3)n2)cc1` , report TGI.
> 50 µM

For the compound CN1C=COC1N=C1CCCCC1 (configuration not stated) , report TGI.
> 100 µM

For the compound `Fc1cccc(Cl)c1Cn1c(-c2c(F)cccc2Cl)nc2ccccc21` , report TGI.
60 µM
